The measurements presented in this section are drawn from ChEMBL document CHEMBL4387748.

# IC50 per entry for Prostaglandin G/H synthase 1 (Ovis aries)
Output spec: scalar in µM, unitless text.

Use the examples below as a reference point.
{"smilesEntry": "COc1ccc(C(=O)/C=C/C2=Cc3c(ccc4ccccc34)OC2)cc1", "IC50, µM": 9.04}
{"smilesEntry": "COc1ccc(C(=O)/C=C/C2=Cc3ccccc3OC2)cc1", "IC50, µM": 9.2}

Task: Value wanted: IC50 (Prostaglandin G/H synthase 1 (Ovis aries)) of entry "O=C(/C=C/C1=Cc2c(ccc3ccccc23)OC1)c1ccc(C(F)(F)F)cc1"
Output: 8.63

Task: Which IC50 is reported with Prostaglandin G/H synthase 1 (Ovis aries) for this entry: "CCc1ccc(C(=O)/C=C/C2=Cc3c(ccc4ccccc34)OC2)cc1" ?
Output: 8.89

Task: Field: IC50 (Prostaglandin G/H synthase 1 (Ovis aries)). Entry: "CCc1ccc(C(=O)/C=C/C2=Cc3ccccc3OC2)cc1"
Output: 6.22

Task: For Prostaglandin G/H synthase 1 (Ovis aries), provide IC50 of "O=C(/C=C/C1=Cc2ccccc2OC1)c1ccc(F)cc1" please.
Output: 8.32

Task: Provide value of IC50 for this record tested with Prostaglandin G/H synthase 1 (Ovis aries): "O=C(/C=C/C1=Cc2ccccc2OC1)c1ccc(Br)cc1"
Output: 7.21

Task: Short answer please: IC50, Prostaglandin G/H synthase 1 (Ovis aries), entry "COc1ccc(C(=O)/C=C/C2=Cc3ccccc3OC2)cc1OC"
Output: 7.08

Task: Given the entry "O=C(/C=C/C1=Cc2c(ccc3ccccc23)OC1)c1ccccc1F" , what IC50 was observed with Prostaglandin G/H synthase 1 (Ovis aries)?
Output: 6.41

Task: What is its IC50 for Prostaglandin G/H synthase 1 (Ovis aries)? Entry: "O=C(/C=C/C1=Cc2ccccc2OC1)c1ccc(C(F)(F)F)cc1"
Output: 7.75

Task: Prostaglandin G/H synthase 1 (Ovis aries) / IC50 / "O=C(/C=C/C1=Cc2c(ccc3ccccc23)OC1)c1ccc([N+](=O)[O-])cc1" : value?
Output: 7.77

Task: # get_value(readout= IC50, system= Prostaglandin G/H synthase 1 (Ovis aries)) for "O=C(/C=C/C1=Cc2c(ccc3ccccc23)OC1)c1ccc(Cl)cc1Cl"
Output: 7.92
